Source: PubChem BioAssay AID1159580

assay: chemical genetic growth profiling, strain panel (AID 1159580);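 note: tested at 20 µM; growth read once vehicle control cultures reached saturation at 30 °C; 1 = growth at the plate median or of vehicle wells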; settings: S. cerevisiae deletion strains, growth OD, locus YHR087W, strain rtc3, stronger effect = lower value
Hit rate of the full screen: of about 5,500 compounds, about 2,000 (36%) were called active. Another 18% or so got no clear call; they are omitted. This is one part of the list.
RESULT_TYPE: normalized growth

-- ask // query normalized growth value for entry S=c1[nH]c2ccccc2[nH]1
-- reply 1.01 (inactive)

-- ask Consider the molecule shown here: CCOC(=O)CCc1cc(N=Cc2cc(Cl)cc(Cl)c2O)c(O)c(N=Cc2cc(Cl)cc(Cl)c2O)c1 What is its recorded normalized growth?
-- reply 0.0846 (active)

-- ask Can you share its normalized growth? I mean this molecule: CSc1nc2ccc(NC(=O)c3c(-c4ccccc4)noc3C)cc2s1
-- reply 1 (inactive)

-- ask // lookup normalized growth for CCOC(=O)c1c(N=Cc2cc(Br)c(Br)cc2O)sc2c1CCCC2
-- reply 0.554 (active)

-- ask Need normalized growth of COC(=O)c1ccc(S(=O)(=O)NCc2ccccc2)n1C , thanks.
-- reply 0.995 (inactive)

-- ask Which normalized growth is listed for CC(C)(C)c1nc(N)sc1Br ?
-- reply 1.01 (inactive)

-- ask Entry CCOC(=O)CC(=O)Nc1scc(C)c1C(=O)OCC : reported normalized growth = ?
-- reply 0.924 (inactive)

-- ask // lookup normalized growth for Cc1onc(-c2ccccc2Cl)c1C(=O)Nc1ccc2c(c1)OCO2
-- reply 1.01 (inactive)

-- ask Reported normalized growth, molecule Cc1onc(-c2ccccc2Cl)c1C(=O)Nc1ccc(S(=O)(=O)Nc2nccs2)cc1 : ____
-- reply 0.968 (inactive)

-- ask State the recorded normalized growth for this entry: N/C(=N\OC(=O)c1ccno1)c1ccc(C(F)(F)F)cc1
-- reply 0.966 (inactive)

-- ask State the recorded normalized growth for this entry: CC(C)(O)C#Cc1ccc(/C=N\O)cc1
-- reply 0.988 (inactive)

-- ask Requested field: normalized growth. Item: NC(=O)CCSCCC(N)=O
-- reply 1 (inactive)

---

assay: chemical genetic growth profiling, strain panel (AID 1159580);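 note: tested at 20 µM; growth read once vehicle control cultures reached saturation at 30 °C; 1 = growth at the plate median or of vehicle wells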; details: S. cerevisiae deletion strains, growth OD, locus YPR167C, strain met16, stronger effect = lower value
In all, about 5,500 compounds went through this assay and about 2,000 (36%) were called active. Roughly 18% stayed inconclusive and do not appear here. The list shows a part of the results.
RESULT_TYPE: normalized growth
No unit in the answer, please; the number alone is enough.

-- ask Request the reported normalized growth associated with C/C=C/c1ccc(OC)cc1
-- reply 1.01

-- ask # get_value(readout='normalized growth', item= CC[C@@H](C(=O)[C@@H](C)[C@@H](O)[C@H](C)[C@@H]1O[C@@H]([C@@H](CC)C(=O)O)CC[C@@H]1C)[C@H]1OC2(C=C[C@@H](O)[C@]3(CC[C@@](C)([C@H]4CC[C@](O)(CC)[C@H](C)O4)O3)O2)[C@H](C)C[C@@H]1C (some centres not stated) )
-- reply 0.865

-- ask Report normalized growth for CC[C@@H](C(=O)O)[C@@H]1O[C@@H]([C@@H](C)[C@H](O)[C@H](C)C(=O)[C@H](CC)[C@H]2O[C@]3(C=C[C@@H](O)[C@]4(CC[C@@](C)(C5CC[C@](O)(CC)[C@H](C)O5)O4)O3)[C@H](C)C[C@@H]2C)[C@@H](C)C[C@H]1C (some centres not stated) please.
-- reply 0.427

-- ask May I ask what normalized growth has been recorded for COc1ccc(/C=C/c2cc(O)cc(O)c2)cc1 ?
-- reply 0.969

-- ask I am curious: what normalized growth value has been reported for CC1CC2C(C(O)CC3(C)C2CCC3(O)C(=O)COC(=O)CCC(=O)O)C2(C)C=CC(=O)C=C12 (configuration not stated) ?
-- reply 0.969

-- ask Recorded normalized growth of C=CCN1CC[C@]23c4c5ccc(O)c4OC2C(=O)CC[C@@]3(O)[C@H]1C5 (some centres not stated) , please.
-- reply 1

-- ask Given C[C@@H]1C[C@@H]([C@H](O)CC2CC(=O)NC(=O)C2)C(=O)[C@@H](C)C1 , state its recorded normalized growth.
-- reply 0.0591
